FYI, the data here is from ChEMBL document CHEMBL3785069.

System: HSC-4
Assay: Selectivity index, ratio of average CC50 for human HGF and HPLF cells to CC50 for human HSC4 cells
Conditions: pooled result: one value given for 2 cell lines, strains, targets or settings
Parameter measured: Selectivity Index

Compound	Result value
COCCSCCC(=O)N1C/C(=C\c2ccc(OC)cc2)C(=O)/C(=C/c2ccc(OC)cc2)C1	10.1
COCC[S+](C)CCC(=O)N1C/C(=C\c2ccccc2)C(=O)/C(=C/c2ccccc2)C1.F[B-](F)(F)F (centres undefined)	6.02
N[C@@H](Cc1ccc(N(CCCl)CCCl)cc1)C(=O)O [MELPHALAN]	6.99
COCC[S+]([O-])CCC(=O)N1C/C(=C\c2ccc(F)cc2)C(=O)/C(=C/c2ccc(F)cc2)C1 (centres undefined)	6.46
